Test system: 521955-158-R2-J5-PDC complex spheroid viability;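 further: spheroids exposed to agents for one week before reading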
TEST DETAILS: Anticancer human tumor 521955-158-R2-J5-PDC patient-derived pancreatic carcinoma cell line growth inhibition [GQUAD]
MEASUREMENT SETUP: curve of first compound; second compound 0.1 µM
Description: DNA G-quadruplex Stabilizer Agents in Combinations in Complex Spheroids A high-throughput screen of multi-cell type tumor spheroids was designed to identify active combinations of DNA G-quadruplex stabilizer agents and targeted small molecules. […] Compounds. […] If the clinical Cmax for an agent had not been determined, the highest concentration tested was 10 microM. […]
pIC50: −log10 of the molar value.
Below: a set of entries, each annotated with reported pIC50.
MEASURED PROPERTY: pIC50

COc1cc(C2c3cc4c(cc3C(OC3OC5COC(C)OC5C(O)C3O)C3COC(=O)C23)OCO4)cc(OC)c1O (stereo not given) + Cc1cnc(CNC(=O)c2c(=O)c3ccc(N4CCCN(C)CC4)nc3n3c2sc2ccccc23)cn1    6.47
COc1cc(C2c3cc4c(cc3C(OC3OC5COC(C)OC5C(O)C3O)C3COC(=O)C23)OCO4)cc(OC)c1O (stereo not given) + Cc1[nH]c2ccc(F)cc2c1-c1nc2c3cccnc3c3ncccc3c2[nH]1    6.24
CC[C@@]1(O)C(=O)OCc2c1cc1n(c2=O)Cc2cc3c(CN(C)C)c(O)ccc3nc2-1 + CN(C)c1ccc(Nc2c3ccc(NC(=O)CCN4CCCC4)cc3nc3cc(NC(=O)CCN4CCCC4)ccc23)cc1    7.03
